Reference for the values: patent US20120014954A1

Target: T1, Secreted Protein, Acidic, Rich in Cysteines (SPARC) (UniProt P09486 18-303)
T1 construct: also called osteonectin; SPARC protein
T1 sequence (looked up): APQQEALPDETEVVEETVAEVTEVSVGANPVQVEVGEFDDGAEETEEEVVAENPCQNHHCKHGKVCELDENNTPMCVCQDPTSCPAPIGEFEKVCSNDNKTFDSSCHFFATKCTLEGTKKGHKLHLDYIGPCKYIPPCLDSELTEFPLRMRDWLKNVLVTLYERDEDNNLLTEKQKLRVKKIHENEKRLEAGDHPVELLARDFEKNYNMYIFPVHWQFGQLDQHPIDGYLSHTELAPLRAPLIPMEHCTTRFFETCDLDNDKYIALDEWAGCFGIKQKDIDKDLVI
Assay: phage ELISA on SPARC-coated wells; OD column 1 of 3
label 1 means recorded OD is 0.6 or above; label 0 means it is below 0.6.

VGNMPFVHPHQW (also called clone 192) = label 0
TQWHDDSTFYWL (also called clone 186) = label 1
IDKPLHVVLALG (also called clone 184) = label 1

--- query ---
[Q] Decide: is the reported value of OD for TSYLNSGMIPAR (also called clone 63) equal to or greater than 0.6?
[A] label 1
